Source listed as the Human Domainome abundance scans (Beltran et al. 2025).

Catalogue of abundance fitness values
B1: Ankyrin-2, residues 3571 to 3650; numbered along this chain, Q01484 (parent)
chain: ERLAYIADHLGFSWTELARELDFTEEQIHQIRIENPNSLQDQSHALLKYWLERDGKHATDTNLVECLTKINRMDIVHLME

- Variants of: B1
- assayRemarks: abundance fitness (aPCA) (normalised: wild type 0, dead -1); higher = more abundant; growth selection in yeast, the domain comes from the species named
- conditionsUsed: Homo sapiens
quantityName: abundance fitness

1) L51R    -0.072
2) H57N    -0.002
3) A58N    0.054
4) I33Q    0.003
5) G55V    -0.038
6) L47T    -0.026
7) N35H    -0.118
8) L39A    0.031
